Below are compounds with their IC50 as measured on HDAC5 (Homo sapiens, UniProt Q9UQL6).
Sequence (Q9UQL6 whole entry): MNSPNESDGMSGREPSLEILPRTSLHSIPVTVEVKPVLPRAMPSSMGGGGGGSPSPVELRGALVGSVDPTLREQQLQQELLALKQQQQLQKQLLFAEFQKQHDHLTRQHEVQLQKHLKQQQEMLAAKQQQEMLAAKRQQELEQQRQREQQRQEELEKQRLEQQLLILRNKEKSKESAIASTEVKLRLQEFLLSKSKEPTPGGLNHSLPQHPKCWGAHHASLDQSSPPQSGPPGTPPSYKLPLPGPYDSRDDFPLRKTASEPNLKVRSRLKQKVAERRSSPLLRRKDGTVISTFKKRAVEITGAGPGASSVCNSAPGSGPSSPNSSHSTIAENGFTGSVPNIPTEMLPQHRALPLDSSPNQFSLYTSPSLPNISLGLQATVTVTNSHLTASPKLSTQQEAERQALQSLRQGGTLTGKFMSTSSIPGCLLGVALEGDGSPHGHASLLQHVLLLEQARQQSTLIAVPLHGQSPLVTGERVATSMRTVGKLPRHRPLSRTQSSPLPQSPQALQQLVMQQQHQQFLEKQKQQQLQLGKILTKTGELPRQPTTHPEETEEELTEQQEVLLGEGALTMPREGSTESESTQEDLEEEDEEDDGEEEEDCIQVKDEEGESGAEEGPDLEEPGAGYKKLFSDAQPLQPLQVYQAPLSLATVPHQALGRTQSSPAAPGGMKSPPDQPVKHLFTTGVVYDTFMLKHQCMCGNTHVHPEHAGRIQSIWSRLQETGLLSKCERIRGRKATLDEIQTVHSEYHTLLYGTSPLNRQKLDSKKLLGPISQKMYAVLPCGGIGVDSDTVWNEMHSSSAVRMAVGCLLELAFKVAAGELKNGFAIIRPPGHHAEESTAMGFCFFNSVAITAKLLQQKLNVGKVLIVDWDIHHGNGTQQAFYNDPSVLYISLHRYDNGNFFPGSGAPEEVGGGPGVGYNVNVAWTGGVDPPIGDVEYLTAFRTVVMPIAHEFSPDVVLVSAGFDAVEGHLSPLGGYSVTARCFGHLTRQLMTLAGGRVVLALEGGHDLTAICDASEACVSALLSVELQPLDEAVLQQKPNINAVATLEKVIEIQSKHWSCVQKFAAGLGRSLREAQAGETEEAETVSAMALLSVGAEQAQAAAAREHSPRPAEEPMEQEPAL

{"compound": "COc1cc(C(=O)NO)ccc1CN1CCCCc2ccccc21 [15a]", "quantity-name": "IC50", "endpoint-result": "> 10 µM"}
{"compound": "O=C(NO)c1ccc(CN2CCCCc3ccccc32)cc1F [15d]", "quantity-name": "IC50", "endpoint-result": "> 10 µM"}
{"compound": "COc1cc(CN2CCCCc3ccccc32)ccc1C(=O)NO [15b]", "quantity-name": "IC50", "endpoint-result": "> 10 µM"}

Then this compound:
Asked: Report IC50, nothing else, for this compound: O=C(NO)c1ccc(CN2CCCCc3ccccc32)c(F)c1 [15c]
Given back: 2.44 µM

====

Biological target: CYP2C19 (Homo sapiens, UniProt P33261)
Sequence (P33261 whole entry): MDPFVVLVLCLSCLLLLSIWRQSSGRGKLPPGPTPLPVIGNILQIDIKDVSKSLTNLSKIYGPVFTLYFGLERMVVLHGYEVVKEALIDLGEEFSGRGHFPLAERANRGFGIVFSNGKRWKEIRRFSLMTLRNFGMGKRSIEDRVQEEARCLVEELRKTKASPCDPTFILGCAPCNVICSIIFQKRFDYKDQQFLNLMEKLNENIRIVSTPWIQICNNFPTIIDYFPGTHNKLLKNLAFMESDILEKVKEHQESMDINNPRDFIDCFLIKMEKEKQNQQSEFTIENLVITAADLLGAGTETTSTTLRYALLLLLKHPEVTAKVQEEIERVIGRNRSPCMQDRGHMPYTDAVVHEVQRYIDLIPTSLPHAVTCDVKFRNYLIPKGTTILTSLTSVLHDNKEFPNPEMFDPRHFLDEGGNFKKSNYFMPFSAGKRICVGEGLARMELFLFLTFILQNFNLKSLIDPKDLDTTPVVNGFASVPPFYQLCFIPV
Assay: CYP inhibition assay, pooled human liver microsomes
Type: in vitro ADME
Conditions: probe S-mephenytoin
quantity-name: inhibition at 25 min, 10 μmol/L (%)
Numbers only, in %.

Asked: Report inhibition at 25 min, 10 μmol/L, nothing else, for this compound: O=C(NO)c1ccc(CN2CCCCc3ccccc32)c(F)c1 [15c]
Given back: 54

====

Target: CYP3A4 (Homo sapiens)
Sequence (P08684 whole entry): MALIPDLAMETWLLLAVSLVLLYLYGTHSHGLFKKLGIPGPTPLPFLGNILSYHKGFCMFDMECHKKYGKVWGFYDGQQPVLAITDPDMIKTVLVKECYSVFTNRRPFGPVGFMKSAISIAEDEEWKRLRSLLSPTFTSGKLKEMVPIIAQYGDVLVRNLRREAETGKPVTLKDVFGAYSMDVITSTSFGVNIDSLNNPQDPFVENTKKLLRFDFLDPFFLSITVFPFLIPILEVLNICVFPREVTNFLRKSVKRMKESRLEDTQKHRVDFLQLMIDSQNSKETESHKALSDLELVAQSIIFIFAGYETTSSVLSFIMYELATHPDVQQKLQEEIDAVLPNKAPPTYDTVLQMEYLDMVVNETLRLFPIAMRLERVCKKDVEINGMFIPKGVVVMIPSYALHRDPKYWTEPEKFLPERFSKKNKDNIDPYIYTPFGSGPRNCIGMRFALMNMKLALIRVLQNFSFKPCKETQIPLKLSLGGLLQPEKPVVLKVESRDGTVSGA
Assay: CYP inhibition assay, pooled human liver microsomes
Type: in vitro ADME
Conditions: probe testosterone
quantity-name: inhibition at 10 min, 10 μmol/L (%)
Give bare numbers, in %.

Asked: Report inhibition at 10 min, 10 μmol/L, nothing else, for this molecule: O=C(NO)c1ccc(CN2CCCCc3ccccc32)c(F)c1 [15c]
Given back: 89

====

Molecular target: HDAC1 (Homo sapiens)
Sequence (Q13547 whole entry): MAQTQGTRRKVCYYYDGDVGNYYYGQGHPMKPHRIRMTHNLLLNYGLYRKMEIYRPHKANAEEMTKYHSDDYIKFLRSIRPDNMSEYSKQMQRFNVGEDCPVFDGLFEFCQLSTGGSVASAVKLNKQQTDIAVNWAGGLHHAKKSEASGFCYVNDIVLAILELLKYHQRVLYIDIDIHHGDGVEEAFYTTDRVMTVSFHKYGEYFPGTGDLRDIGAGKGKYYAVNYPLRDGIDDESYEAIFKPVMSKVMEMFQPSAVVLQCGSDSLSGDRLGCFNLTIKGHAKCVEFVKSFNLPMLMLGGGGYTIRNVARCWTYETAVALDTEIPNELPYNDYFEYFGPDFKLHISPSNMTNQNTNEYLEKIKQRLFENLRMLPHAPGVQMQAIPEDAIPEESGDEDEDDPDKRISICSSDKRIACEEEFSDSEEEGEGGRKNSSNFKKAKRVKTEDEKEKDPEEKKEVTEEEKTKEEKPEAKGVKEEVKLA
pIC50: −log10 of the molar value.
I'd appreciate it if you could supply pIC50 values for the items below.

{"compound": "COc1cc(CN2CCCCc3ccccc32)ccc1C(=O)NO [15b]", "pIC50": "< 5.00"}
{"compound": "O=C(NO)c1ccc(CN2CCCCc3ccccc32)cc1F [15d]", "pIC50": "< 5.00"}
{"compound": "COc1cc(C(=O)NO)ccc1CN1CCCCc2ccccc21 [15a]", "pIC50": "< 5.00"}

Then this compound:
Asked: Report pIC50, nothing else, for this compound: O=C(NO)c1ccc(CN2CCCCc3ccccc32)c(F)c1 [15c]
Given back: 5.11

====

Assay: Plasma protein binding
Assay type: in vitro ADME
Details: human
quantity-name: fraction unbound
Give bare numbers.

Asked: Report fraction unbound, nothing else, for this compound: O=C(NO)c1ccc(CN2CCCCc3ccccc32)c(F)c1 [15c]
Given back: 0.006

====

Target: HDAC9 (Homo sapiens)
Sequence (Q9UKV0 whole entry): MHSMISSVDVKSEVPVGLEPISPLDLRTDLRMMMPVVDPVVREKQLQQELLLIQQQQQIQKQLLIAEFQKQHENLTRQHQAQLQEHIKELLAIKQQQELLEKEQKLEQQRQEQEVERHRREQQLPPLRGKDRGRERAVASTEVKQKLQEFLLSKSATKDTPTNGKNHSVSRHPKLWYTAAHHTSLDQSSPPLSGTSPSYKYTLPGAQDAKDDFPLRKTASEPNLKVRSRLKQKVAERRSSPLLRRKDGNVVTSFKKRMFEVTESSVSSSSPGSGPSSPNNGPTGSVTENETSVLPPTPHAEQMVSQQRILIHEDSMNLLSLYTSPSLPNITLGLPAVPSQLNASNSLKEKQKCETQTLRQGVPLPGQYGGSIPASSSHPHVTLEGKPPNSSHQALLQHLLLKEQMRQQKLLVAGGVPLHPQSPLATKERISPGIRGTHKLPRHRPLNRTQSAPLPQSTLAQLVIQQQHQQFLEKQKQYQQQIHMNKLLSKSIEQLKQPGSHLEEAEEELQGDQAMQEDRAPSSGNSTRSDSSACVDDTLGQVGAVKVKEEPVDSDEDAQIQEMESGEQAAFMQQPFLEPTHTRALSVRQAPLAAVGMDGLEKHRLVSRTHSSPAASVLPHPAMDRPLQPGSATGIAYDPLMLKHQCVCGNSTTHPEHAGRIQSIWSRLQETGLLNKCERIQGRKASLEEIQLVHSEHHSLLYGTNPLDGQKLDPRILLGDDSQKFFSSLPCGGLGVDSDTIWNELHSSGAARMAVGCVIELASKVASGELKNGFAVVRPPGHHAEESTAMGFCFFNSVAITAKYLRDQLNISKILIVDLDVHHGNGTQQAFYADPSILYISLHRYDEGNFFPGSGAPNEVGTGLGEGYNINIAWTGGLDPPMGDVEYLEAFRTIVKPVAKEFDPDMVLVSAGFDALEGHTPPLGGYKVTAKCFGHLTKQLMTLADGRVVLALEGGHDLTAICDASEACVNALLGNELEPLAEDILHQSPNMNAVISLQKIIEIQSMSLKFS
Experiment: HDAC enzyme inhibition assay
Assay type: biochemical
pIC50: −log10 of the molar value.
I'd appreciate it if you could supply pIC50 values for the items below.

Worked set:
{"compound": "O=C(NO)c1ccc(CN2CCCCc3ccccc32)cc1F [15d]", "quantity-name": "pIC50", "endpoint-result": "< 5.00"}
{"compound": "COc1cc(CN2CCCCc3ccccc32)ccc1C(=O)NO [15b]", "quantity-name": "pIC50", "endpoint-result": "< 5.00"}
{"compound": "O=C(NO)c1ccc(CN2CCCCc3ccccc32)c(F)c1 [15c]", "quantity-name": "pIC50", "endpoint-result": 5.50}

Then this compound:
Asked: Report pIC50, nothing else, for this compound: COc1cc(C(=O)NO)ccc1CN1CCCCc2ccccc21 [15a]
Given back: < 5.00
